Can you tell me apparent KD of MS2 coat protein for the items I'm about to list?
- Test system: MS2 coat protein
- Assay protocol: apparent KD of MS2 coat protein; designed switch direction (-1 OFF switch, 1 ON switch): -1; higher = weaker reporter binding
- Reported conditions: Eterna round: R95; input ligand: microRNA oligo, concentration not stated
The response must be a number in nM with no trailing unit.

-- ask Specify measured apparent KD of MS2 coat protein for UACGGGUCAGGAUAUGCGAGAGAUUGGGAAAUAGGAAGGUAGCAGAAGGGACAUGAGGAUCACCCAUGUGAAGC [JR_Exclu4_Sub097] (puzzle: Exclusion 4) .
-- reply 25.9

-- ask Specify measured apparent KD of MS2 coat protein for CAUACACAUGAGGAUCACCCAUGUGAGGAUAUGCGUACGUUGUCCGUAGGCGACGUGCGCAGAAGGCGCUUGGU [JL-ex1-3.18 Eli mod] (puzzle: Exclusion 1) .
-- reply 49

-- ask Specify measured apparent KD of MS2 coat protein for CGAUGUCUUCGGACAUCGAACAUGAGGAUCACCCAUGUAAUGAGCAGAUCCUCAUGCAAGCUUUUUGCUCGUCUUAU [Sensor v3 - turn-off variant 1 - 45] (puzzle: Sensor v3, turn-off variant 1) .
-- reply 9.69

-- ask Specify measured apparent KD of MS2 coat protein for AACAUGUCAGGAUAUAUGACAUGGCUCUUCGGAGCAAGCUCAUAGAAGGGACAUGAGGAUCACCCAUGUAGAGC [Ex4-3: 21] (puzzle: Exclusion 4) .
-- reply 21.7

-- ask Specify measured apparent KD of MS2 coat protein for CAUACUCAAGUCAGGAUAUACAGUCGGAUACGGGUGUAGAAGGGACAUGAGGAUCACCCAUGUAGAGAGUAAAG [EX-4 Malc #23] (puzzle: Brourd's mod of Exclusion 4) .
-- reply 31.1

-- ask Specify measured apparent KD of MS2 coat protein for UAUAUGUGAGGAUAUCAGGUGUGCUAGCGUACUGGUACAUCUGAGAAGGCACAUGAGGAUCACCCAUGUAUCUU [JL-ex4-3.25 Brourd mod] (puzzle: Exclusion 4) .
-- reply 25.5

-- ask Specify measured apparent KD of MS2 coat protein for UUAUUGUGAGGAUAUCAGGUGUGCUAGCGUACUGGUACAUCUGAGAAGGCACAUGAGGAUCACCCAUGUUCCUU [JL-ex4-3.26 Brourd mod] (puzzle: Exclusion 4) .
-- reply 14.4

-- ask Specify measured apparent KD of MS2 coat protein for CUUUUGUGAGGAUAUCAGUAGUAUAAAAAUAAAAUUACUACUGAGAAGGCACAUGAGGAUCACCCAUGUUCCUC [salish99_ex4_r3_017] (puzzle: Exclusion 4) .
-- reply 37.4

-- ask Specify measured apparent KD of MS2 coat protein for CUUCUCAGAGGAUAUCACGGUAAUAACAUGAGGAUCACCCAUGUGGAAUUCGUGUCCCUGUGAGAAGGCUGAGAAG [Bezavere] (puzzle: Exclusion 5) .
-- reply 12.2

-- ask Specify measured apparent KD of MS2 coat protein for CUUCACCCACCAAAGCUCACCCACAUACCUGCUCUGGUGACAUGAGGAUCACCCAUGUUUUUUGCCCGUCUUAUCUU [Leso] (puzzle: Sensor v3, turn-off variant 2) .
-- reply 163

-- ask Specify measured apparent KD of MS2 coat protein for GGUUGUUUUUUCCGUUCUUACAUGAGGAUCACCCAUGUUUCUUGUCGUGCUCGCGUUGCUCGUCUGUCUGUCUGUUG [salish99_TOv1_r3_073] (puzzle: Sensor v3, turn-off variant 1) .
-- reply 34.3
